Data provenance is paper PMC5369532.

tgt: VIM-2 (Escherichia coli, UniProt Q5U7L7)
Construct: made in house; host or cells: Escherichia coli
testDetails: biochemical
Type: biochemical
cond: pIC50 (VIM-2)
observationType: IC50

> print(dat)
                                   compound                                       tgt  assayvalue
1  O=C(O)CCC(NS(=O)(=O)c1ccccc1)C(=O)O (stereo not shown)  VIM-2 (Escherichia coli, UniProt Q5U7L7)     1100 µM

* * *

tgt: VIM-2 (Escherichia coli, UniProt Q5U7L7)
Construct: made in house; host or cells: Escherichia coli
testDetails: biochemical
Assay type: biochemical
cond: FC-5 based assay, n ≥ 3; read-out: IC50 (VIM-2)
Overview of reported IC50 across a group of compounds:
observationType: IC50 (µM)

> print(dat)
                                    compound  censorsymbol  assayvalue
 1  O=C(O)c1cccc2c1C(=O)N(CC1CCCO1)C2 (centres unmarked) [Compound 38]             >         400
 2  CNCc1ccc(-c2cccc(C(=O)O)c2)o1 [Compound 5]             >        1600
 3  NC(=O)N/N=C/c1cccc(C(=O)O)c1O [Compound 3]             >        1600
 4  C=CCC1c2cccc(C(=O)OC)c2C(=O)N1c1ccccc1 (centres unmarked) [Compound 43]             >         400
 5  O=C(O)c1cccc2c1C(=O)N(Cc1cccs1)C2 [Compound 36]             =         153
 6  O=C(O)c1cccc(/C=N/N=C/c2cccc(C(=O)O)c2O)c1O [Compound 18]             =         117
 7  CN(C)c1ccc(CN2Cc3cccc(C(=O)O)c3C2=O)cc1 [Compound 27]             =         176
 8  O=C(O)c1cccc2c1C(=O)N(Cc1ccncc1)C2 [Compound 22]             >         400
 9  O=C(O)C(=Cc1ccc(-c2ccc(Cl)cc2)o1)C(=O)O [Compound 12]             =          87
10  O=C(O)c1cccc2c1C(=O)N(C1CCCC1)C2 [Compound 37]             =        68.1
11  COc1ccc(CN2Cc3cccc(C(=O)O)c3C2=O)cc1OC [Compound 25]             =         320
12  CN(C)Cc1ccc(N2Cc3cccc(C(=O)O)c3C2=O)cc1 [Compound 34]             =        60.3
13  O=C(O)CC1CC(c2ccc(F)cc2)=NO1 (centres unmarked) [Compound 4]             =         557
14  COCCCN1Cc2cccc(C(=O)O)c2C1=O [Compound 40]             >         400
15  C=CCC1c2cccc(C(=O)O)c2C(=O)N1c1cccc(OC)c1 (centres unmarked) [Compound 42]             =        20.3
16  O=C(O)c1cccc2c1C(=O)N(Cc1ccccc1F)C2 [Compound 24]             =        47.1
17  COc1cc(CN2Cc3cccc(C(=O)O)c3C2=O)cc(OC)c1OC [Compound 26]             >         400
18  COc1ccccc1N1Cc2cccc(C(=O)O)c2C1=O [Compound 31]             =         133
19  O=C(O)c1cccc2c1C(=O)N(CCc1ccccc1)C2 [Compound 39]             =        71.9
20  O=C(O)c1cccc2c1C(=O)N(c1ccccc1)C2 [Compound 30]             =        17.8
21  C=CCC1c2cccc(C(=O)O)c2C(=O)N1c1ccc(F)cc1 (centres unmarked) [Compound 41]             =        24.6
22  O=C(O)c1cccc2c1C(=O)N(c1ccccc1Cl)C2 [Compound 33]             =          74
23  O=C(O)C(Cc1ccc(O)cc1)NC1CCS(=O)(=O)C1 (centres unmarked) [Compound 14]             =         669
24  O=C(O)C1CC(c2ccccc2F)=NO1 (centres unmarked) [Compound 2]             =         993
25  Cc1c/c(=N\c2ccccc2C(=O)O)n2ncnc2[nH]1 [Compound 8]             >        1600
26  COc1cccc(N2Cc3cccc(C(=O)O)c3C2=O)c1 [Compound 32]             =        39.3
27  O=C(O)c1cccc2c1C(=O)N(c1cccc(C(F)(F)F)c1)C2 [Compound 17]             =        32.8
28  CC(c1ccncc1)N1Cc2cccc(C(=O)O)c2C1=O (centres unmarked) [Compound 29]             =         229
29  CC(=O)Nc1ccc(S(=O)(=O)N2CCCC2C(=O)O)cc1 (centres unmarked) [Compound 15]             >        1600
30  Cc1cc(N/N=C/c2ccc(O)c(C(=O)O)c2)nc(-c2ccccc2O)n1 [Compound 20]             <         400
31  Cc1oc2c(c1C(=O)O)C(=O)CC(c1ccccc1)C2 (centres unmarked) [Compound 10]             >        1600
32  O=C(O)c1cccc2c1C(=O)N(c1ccc(O)c(F)c1)C2 [Compound 35]             =         7.7
